This listing pairs compounds with measured TGI.
# System: A549
# Measurement Description: Growth inhibition of human A549 cells after 48 hrs by sulforhodamine B assay
# Type: functional
# Test Parameters: A549, 48 h, read-out: pTGI (converted)
Observation Type: TGI (µM)

>  <Substance Smiles>
Nc1cc(N)c2nc(-c3ccccc3)c(Oc3ccc(Cl)c(Cl)c3)nc2c1

>  <Target Desc>
A549

>  <Observation Type>
TGI

>  <Result Qualifier>
=

>  <Assay Value>
43.7

$$$$
>  <Substance Smiles>
COc1ccc(Sc2nc3cc(N)cc(N)c3nc2-c2ccccc2)cc1

>  <Target Desc>
A549

>  <Observation Type>
TGI

>  <Result Qualifier>
>

>  <Assay Value>
100

$$$$
>  <Substance Smiles>
Nc1cc(N)c2nc(-c3ccccc3)c(Sc3ccc(F)cc3)nc2c1

>  <Target Desc>
A549

>  <Observation Type>
TGI

>  <Result Qualifier>
=

>  <Assay Value>
30.9

$$$$
>  <Substance Smiles>
COc1cc(CNc2nc3cc(N)cc(N)c3nc2-c2ccccc2)cc(OC)c1

>  <Target Desc>
A549

>  <Observation Type>
TGI

>  <Result Qualifier>
>

>  <Assay Value>
100

$$$$
>  <Substance Smiles>
Nc1cc(N)c2nc(-c3ccccc3)c(NCc3ccc(Cl)c(Cl)c3)nc2c1

>  <Target Desc>
A549

>  <Observation Type>
TGI

>  <Result Qualifier>
=

>  <Assay Value>
27.5

$$$$
>  <Substance Smiles>
COc1ccc(CNc2nc3cc(N)cc(N)c3nc2-c2ccccc2)cc1

>  <Target Desc>
A549

>  <Observation Type>
TGI

>  <Result Qualifier>
=

>  <Assay Value>
60.3

$$$$
>  <Substance Smiles>
Nc1cc(N)c2nc(-c3ccccc3)c(Oc3ccc(F)cc3)nc2c1

>  <Target Desc>
A549

>  <Observation Type>
TGI

>  <Result Qualifier>
=

>  <Assay Value>
46.8

$$$$
>  <Substance Smiles>
COc1cc(CNc2nc3cc(N)cc(N)c3nc2-c2ccccc2)cc(OC)c1OC

>  <Target Desc>
A549

>  <Observation Type>
TGI

>  <Result Qualifier>
=

>  <Assay Value>
33.1

$$$$
>  <Substance Smiles>
Nc1cc(N)c2nc(-c3ccccc3)c(NCc3ccc(F)cc3)nc2c1

>  <Target Desc>
A549

>  <Observation Type>
TGI

>  <Result Qualifier>
=

>  <Assay Value>
34.7

$$$$
>  <Substance Smiles>
COc1ccc(Oc2nc3cc(N)cc(N)c3nc2-c2ccccc2)cc1

>  <Target Desc>
A549

>  <Observation Type>
TGI

>  <Result Qualifier>
>

>  <Assay Value>
100

$$$$
>  <Substance Smiles>
COc1ccc(CNc2nc3cc(N)cc(N)c3nc2-c2ccccc2)cc1OC

>  <Target Desc>
A549

>  <Observation Type>
TGI

>  <Result Qualifier>
=

>  <Assay Value>
50.1

$$$$
>  <Substance Smiles>
Nc1cc(N)c2nc(-c3ccccc3)c(Sc3ccc(Cl)c(Cl)c3)nc2c1

>  <Target Desc>
A549

>  <Observation Type>
TGI

>  <Result Qualifier>
=

>  <Assay Value>
52.5

$$$$
>  <Substance Smiles>
COc1cc(OC)cc(Oc2nc3cc(N)cc(N)c3nc2-c2ccccc2)c1

>  <Target Desc>
A549

>  <Observation Type>
TGI

>  <Result Qualifier>
=

>  <Assay Value>
13.2

$$$$

----------
# Test system: OVCAR-3
# Measurement Description: Growth inhibition of human OVCAR-3 cells after 48 hrs by sulforhodamine B assay
# Type: functional
# Test Parameters: OVCAR-3, 48 h, read-out: pTGI (converted)
Observation Type: TGI (µM)

>  <Substance Smiles>
Nc1cc(N)c2nc(-c3ccccc3)c(Oc3ccc(F)cc3)nc2c1

>  <Target Desc>
OVCAR-3

>  <Observation Type>
TGI

>  <Unit Descriptor>
µM

>  <Assay Value>
41.7

$$$$
>  <Substance Smiles>
Nc1cc(N)c2nc(-c3ccccc3)c(Sc3ccc(Cl)c(Cl)c3)nc2c1

>  <Target Desc>
OVCAR-3

>  <Observation Type>
TGI

>  <Unit Descriptor>
µM

>  <Assay Value>
46.8

$$$$
>  <Substance Smiles>
COc1cc(CNc2nc3cc(N)cc(N)c3nc2-c2ccccc2)cc(OC)c1

>  <Target Desc>
OVCAR-3

>  <Observation Type>
TGI

>  <Unit Descriptor>
µM

>  <Assay Value>
4.57

$$$$

----------
# Measurement Description: Growth inhibition of human […] cells after 48 hrs by sulforhodamine B assay
# Type: functional
# Test Parameters: read-out: pTGI (converted)
Label 1 when TGI < 20 µM; otherwise 0.

>  <Substance Smiles>
COc1cc(OC)cc(Oc2nc3cc(N)cc(N)c3nc2-c2ccccc2)c1

>  <Label>
1

$$$$
>  <Substance Smiles>
Nc1cc(N)c2nc(-c3ccccc3)c(Oc3ccc(F)cc3)nc2c1

>  <Label>
0

$$$$
>  <Substance Smiles>
COc1ccc(CNc2nc3cc(N)cc(N)c3nc2-c2ccccc2)cc1

>  <Label>
1

$$$$
>  <Substance Smiles>
Nc1cc(N)c2nc(-c3ccccc3)c(Oc3ccc(Cl)c(Cl)c3)nc2c1

>  <Label>
0

$$$$
>  <Substance Smiles>
Nc1cc(N)c2nc(-c3ccccc3)c(NCc3ccc(Cl)c(Cl)c3)nc2c1

>  <Label>
1

$$$$
>  <Substance Smiles>
COc1cc(CNc2nc3cc(N)cc(N)c3nc2-c2ccccc2)cc(OC)c1

>  <Label>
1

$$$$
>  <Substance Smiles>
Nc1cc(N)c2nc(-c3ccccc3)c(Sc3ccc(Cl)c(Cl)c3)nc2c1

>  <Label>
0

$$$$
>  <Substance Smiles>
COc1ccc(CNc2nc3cc(N)cc(N)c3nc2-c2ccccc2)cc1OC

>  <Label>
1

$$$$
>  <Substance Smiles>
COc1ccc(Sc2nc3cc(N)cc(N)c3nc2-c2ccccc2)cc1

>  <Label>
0

$$$$
>  <Substance Smiles>
COc1ccc(Oc2nc3cc(N)cc(N)c3nc2-c2ccccc2)cc1

>  <Label>
0

$$$$
>  <Substance Smiles>
COc1cc(CNc2nc3cc(N)cc(N)c3nc2-c2ccccc2)cc(OC)c1OC

>  <Label>
1

$$$$
>  <Substance Smiles>
Nc1cc(N)c2nc(-c3ccccc3)c(Sc3ccc(F)cc3)nc2c1

>  <Label>
0

$$$$
>  <Substance Smiles>
Nc1cc(N)c2nc(-c3ccccc3)c(NCc3ccc(F)cc3)nc2c1

>  <Label>
1

$$$$

----------
This listing pairs compounds with measured GI50.
# Measurement Description: Growth inhibition of human […] cells after 48 hrs by sulforhodamine B assay
# Assay type: functional

>  <Substance Smiles>
Nc1cc(N)c2nc(-c3ccccc3)c(NCc3ccc(F)cc3)nc2c1

>  <GI50 [µM]>
2.51

$$$$
>  <Substance Smiles>
COc1ccc(CNc2nc3cc(N)cc(N)c3nc2-c2ccccc2)cc1

>  <GI50 [µM]>
4.17

$$$$
>  <Substance Smiles>
COc1cc(CNc2nc3cc(N)cc(N)c3nc2-c2ccccc2)cc(OC)c1OC

>  <GI50 [µM]>
0.692

$$$$

----------
# Tested on: HOP-62
# Measurement Description: Growth inhibition of human HOP62 cells after 48 hrs by sulforhodamine B assay
# Format: functional
# Test Parameters: HOP-62, 48 h
Label criterion met when GI50 < 20 µM; otherwise criterion not met.

>  <Substance Smiles>
COc1ccc(Sc2nc3cc(N)cc(N)c3nc2-c2ccccc2)cc1

>  <Label>
criterion not met

$$$$
>  <Substance Smiles>
Nc1cc(N)c2nc(-c3ccccc3)c(NCc3ccc(F)cc3)nc2c1

>  <Label>
criterion not met

$$$$
>  <Substance Smiles>
Nc1cc(N)c2nc(-c3ccccc3)c(NCc3ccc(Cl)c(Cl)c3)nc2c1

>  <Label>
criterion met

$$$$
>  <Substance Smiles>
COc1ccc(CNc2nc3cc(N)cc(N)c3nc2-c2ccccc2)cc1

>  <Label>
criterion met

$$$$
>  <Substance Smiles>
COc1cc(OC)cc(Oc2nc3cc(N)cc(N)c3nc2-c2ccccc2)c1

>  <Label>
criterion met

$$$$
>  <Substance Smiles>
Nc1cc(N)c2nc(-c3ccccc3)c(Oc3ccc(F)cc3)nc2c1

>  <Label>
criterion not met

$$$$
>  <Substance Smiles>
Nc1cc(N)c2nc(-c3ccccc3)c(Sc3ccc(F)cc3)nc2c1

>  <Label>
criterion met

$$$$
>  <Substance Smiles>
Nc1cc(N)c2nc(-c3ccccc3)c(Sc3ccc(Cl)c(Cl)c3)nc2c1

>  <Label>
criterion met

$$$$
>  <Substance Smiles>
COc1cc(CNc2nc3cc(N)cc(N)c3nc2-c2ccccc2)cc(OC)c1

>  <Label>
criterion met

$$$$
>  <Substance Smiles>
Nc1cc(N)c2nc(-c3ccccc3)c(Oc3ccc(Cl)c(Cl)c3)nc2c1

>  <Label>
criterion met

$$$$
>  <Substance Smiles>
COc1cc(CNc2nc3cc(N)cc(N)c3nc2-c2ccccc2)cc(OC)c1OC

>  <Label>
criterion met

$$$$
>  <Substance Smiles>
COc1ccc(CNc2nc3cc(N)cc(N)c3nc2-c2ccccc2)cc1OC

>  <Label>
criterion met

$$$$
